- System: SF-268 CNS
- test summary: NCI-60 one-dose screen, 48 h (100 = growth as untreated, 0 = no growth, -100 = all killed)
- condition: 10 µM unless noted
This is part of a sample that, as a whole, favours compounds with a hit. Of some 83,000 tested, about 20% had one in any assay.
result type: growth (%)

1) Cc1nc(Nc2ccc(NC(=S)Nc3ccccc3)cc2)nc2nc(SCc3ccccc3)[nH]c(=O)c12; 98.4
2) Cc1cc(-c2noc(C(F)(F)F)n2)ccc1N1CCN(c2cc(C(=O)N(C)C)no2)CC1; 82.2
3) Cc1cc(NS(=O)(=O)c2ccccc2)c(OS(=O)(=O)c2ccccc2)cc1C; 105
4) C#C[C@]1(O)CC[C@H]2[C@@H]3CC=C4c5sc(N=C(N)N)nc5CC[C@]4(C)[C@H]3CC[C@@]21C; -15
5) O=C(CC12CC3CC(CC(C3)C1)C2)NCCOCCOCCOCCNC(=O)c1cc2c(o1)C(=O)c1ccccc1C2=O; -3.17
6) Nc1c(C(=O)Nc2ccccc2)sc2nc3c(cc12)CCCCCC3; 36.6
7) C=C(C=O)[C@@H]1CC=C(C=O)CC1; -16.7
8) CC(C)(C)OC(=O)N1Cc2cc3ccccc3nc2C1CO (stereo not given); 102
9) CCC(O)(C(c1ccccc1)c1ccccn1)C(c1ccccc1)c1ccccn1 (stereo not given); 95.3
10) Cc1ccc(O)c(C(=O)c2ccccc2Cl)c1; 104

Measured values drawn from PubChem BioAssay (NCI) for this set.
